Reference source: paper PMC9911399

In this section we review reported binding signal values for a set of binders.
Target: T1, RBFOX1 RRM (Homo sapiens, UniProt Q9NWB1 109-208)
T1 sequence: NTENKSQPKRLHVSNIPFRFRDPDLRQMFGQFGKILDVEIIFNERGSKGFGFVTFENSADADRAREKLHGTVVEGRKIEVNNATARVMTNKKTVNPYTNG
Experiment: EMSA; HiTS-Eq, 1 nM pool, 10 min; buffer printed only for the single-RNA assays: 10 mM Tris pH 7.5, 150 mM NaCl, 3.4 mM EDTA, 0.001% NP-40, 30 C
Settings: tags: His6 N-terminal (pET28a); label: 5' 32P
Over roughly 16,000 sequences, “ka relative to ugcaugu” has its median near 0.0091; the highest 2% begin near 0.032. The sample holds the highest values, similar sequences and a random draw of the others, so the mix is not that of the screen.

Consider the reported binding signal for these binders:
CGGCUGU (DNA:RNA) RNA: GGGAGACCGGAAUUCAGAUUGUCCCGGCUGUUUAAAUCCCGUCGUAGCCACCA DNA 1: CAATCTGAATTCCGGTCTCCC DNA 2: TGGTGGCTACGACGGGATT
0.0179 KA relative to UGCAUGU
UUGGCUC (DNA:RNA) RNA: GGGAGACCGGAAUUCAGAUUGUCCUUGGCUCUUAAAUCCCGUCGUAGCCACCA DNA 1: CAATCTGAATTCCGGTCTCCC DNA 2: TGGTGGCTACGACGGGATT
0.0219 KA relative to UGCAUGU
CUGUGGC (DNA:RNA) RNA: GGGAGACCGGAAUUCAGAUUGUCCCUGUGGCUUAAAUCCCGUCGUAGCCACCA DNA 1: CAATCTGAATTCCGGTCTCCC DNA 2: TGGTGGCTACGACGGGATT
0.0106 KA relative to UGCAUGU

Continue with the next binder.
Data point: GUGCUGU (DNA:RNA) RNA: GGGAGACCGGAAUUCAGAUUGUCCGUGCUGUUUAAAUCCCGUCGUAGCCACCA DNA 1: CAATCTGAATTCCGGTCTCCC DNA 2: TGGTGGCTACGACGGGATT ; binding signal = 0.021 KA relative to UGCAUGU
